Just for reference, paper PMC6406002 is where these values come from.

target: CaiT (Escherichia coli, UniProt P31553, D288A); construct: full-length with C-terminal 6His tag (pET21a), expressed in E. coli JW0039 (delta caiT), Ni-NTA purified; homotrimer (D288A and D288R mostly monomeric); DDM-solubilized or in proteoliposomes; assay: tryptophan fluorescence titration; assay type: binding; conditions: read-out: L-carnitine / Kd
pKd: −log10 of the molar value.
recorded-endpoint: pKd

[[record]]
compound_structure = "C[N+](C)(C)C[C@H](O)CC(=O)O"
result = 2.74


----------
target: CaiT (Escherichia coli, UniProt P31553, D288R); construct: full-length with C-terminal 6His tag (pET21a), expressed in E. coli JW0039 (delta caiT), Ni-NTA purified; homotrimer (D288A and D288R mostly monomeric); DDM-solubilized or in proteoliposomes; test: tryptophan fluorescence titration; type: binding; conditions: read-out: γ-butyrobetaine / Kd
recorded-endpoint: Kd (mM)

[[record]]
compound = "C[N+](C)(C)CCCC(=O)[O-] [γ-butyrobetaine]"
recorded_endpoint = "Kd"
units_of_measure = "mM"
result = 11.4


----------
target: CaiT (Escherichia coli, UniProt P31553); construct: full-length with C-terminal 6His tag (pET21a), expressed in E. coli JW0039 (delta caiT), Ni-NTA purified; homotrimer (D288A and D288R mostly monomeric); DDM-solubilized or in proteoliposomes; test: tryptophan fluorescence titration; type: binding; conditions: read-out: L-carnitine / Kd
recorded-endpoint: Kd (mM)

[[record]]
compound = "C[N+](C)(C)C[C@H](O)CC(=O)O [L-carnitine]"
result = 3.3


----------
molecular target: CaiT (Escherichia coli, UniProt P31553, D288R); construct: full-length with C-terminal 6His tag (pET21a), expressed in E. coli JW0039 (delta caiT), Ni-NTA purified; homotrimer (D288A and D288R mostly monomeric); DDM-solubilized or in proteoliposomes; test: tryptophan fluorescence titration; type: binding; conditions: read-out: L-carnitine / Kd
recorded-endpoint: Kd (µM)

[[record]]
compound_structure = "C[N+](C)(C)C[C@H](O)CC(=O)O"
recorded_endpoint = "Kd"
result = 1900

